# Test system: MCH58 fibroblasts
# assay-info: Glucose versus galactose cell growth screen (metabolic state-dependent lethality)
# particulars: approximately 10 μM compound, 72 hours; log10 fold change of normalized cell number in glucose versus galactose
Where a name gives a salt, the structure may show the parent alone.
The label depends only on Sglu/gal (log10 fold change) Score: true if it is at least -0.2, false if it is smaller.

Ask: Could you verify whether the entry COc1cc2c(c(OC)c1OC)-c1ccc(OC)c(=O)cc1[C@@H](NC(C)=O)CC2 [Colchicine] shows Sglu/gal (log10 fold change) Score of no less than -0.2?
Result: false

Ask: Could you verify whether the entry O=c1[nH]c(=O)n([C@H]2C[C@H](O)[C@@H](CO)O2)cc1F [floxuridine] shows Sglu/gal (log10 fold change) Score of no less than -0.2?
Result: false

Ask: Could you verify whether the entry O=C(N/N=C/c1ccc([N+](=O)[O-])o1)c1ccc(O)cc1 [Nifuroxazide] shows Sglu/gal (log10 fold change) Score of no less than -0.2?
Result: true

Ask: Could you verify whether the entry O=C1O[C@H]([C@@H](O)CO)C(O)=C1O [Ascorbic acid] shows Sglu/gal (log10 fold change) Score of no less than -0.2?
Result: true

Ask: Could you verify whether the entry CCN[C@H]1C[C@H](C)S(=O)(=O)c2sc(S(N)(=O)=O)cc21 [Dorzolamide hydrochloride] shows Sglu/gal (log10 fold change) Score of no less than -0.2?
Result: true

Ask: Could you verify whether the entry CO[C@H]1[C@H](O)[C@H](O[C@H]2CC[C@@]3(C)[C@H](CC[C@@H]4[C@@H]3CC[C@]3(C)[C@@H](C5=CC(=O)OC5)CC[C@]43O)C2)O[C@@H](C)[C@@H]1O [neriifolin] shows Sglu/gal (log10 fold change) Score of no less than -0.2?
Result: false

Ask: Could you verify whether the entry C[C@@]12C(=O)OC(=O)[C@]1(C)[C@H]1CC[C@@H]2O1 [cantharidin] shows Sglu/gal (log10 fold change) Score of no less than -0.2?
Result: false

Ask: Could you verify whether the entry COc1cc2c(cc1OC)[C@@H]1C(=O)c3ccc4oc(C(C)C)cc4c3O[C@@H]1CO2 [Isorotenone] shows Sglu/gal (log10 fold change) Score of no less than -0.2?
Result: true
